systemTested: CTLA-4 (Homo sapiens, UniProt P16410)
Sequence (P16410 36-223): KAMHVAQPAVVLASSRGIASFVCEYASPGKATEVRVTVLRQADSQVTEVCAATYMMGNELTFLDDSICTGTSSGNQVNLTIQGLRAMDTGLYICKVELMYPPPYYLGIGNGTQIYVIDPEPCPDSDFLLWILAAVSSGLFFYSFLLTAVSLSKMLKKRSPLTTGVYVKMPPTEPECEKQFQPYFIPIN
assay: ELISA binding of clones after Affinity Maturation with random library (Tables 10, 11)
experimentalSetup: CTLA-4 binding ELISA of clones after Affinity Maturation from random (NNS) library; signal/noise ratio; clones of 4th or 5th round
readout: ELISA S/N(SA)

Look over these answered cases.
[[record]]
substance = "C4m3127-4th-NNS6-20 (GGCLHPFLPILSLHFCPF; C4m3127-4th-NNS6-20) [Clone C4m3127-4th-NNS6-20]"
readout = "ELISA S/N(SA)"
number = 4.4

[[record]]
substance = "C4m#19-5th2w-NNS6-53 (GGCLHPWLPIRSFHFCGA; C4m#19-5th2w-NNS6-53)"
readout = "ELISA S/N(SA)"
number = 11.4

[[record]]
substance = "C4n#19-5th2w-NNS6-71 (GGCRHPYLPIASPHFCPG; left off: large carriers; small tags and cut ends)"
readout = "ELISA S/N(SA)"
number = 22.9


[A] C4m#19-5th4w-NN6-46-1 (GGCVHPALPIWSFHFCPS; C4m#19-5th4w-NN6-46-1)
[B] C4m#19-5th2w-NNS6-67 (GGCQHPWLPISSWHFCPR; C4m#19-5th2w-NNS6-67)
Asked: Hey, between A and B which has a smaller measured ELISA S/N(SA)? Answer = label.
Given back: A
(A: 14.2, B: 25.5)

[1] C4m#19-5th2w-NNS6-86 (GGCFHPYLPIWSLHFCRS; C4m#19-5th2w-NNS6-86)
[2] C4m#19-5th4w-NN6-65 (GGCWHPFLPILSLHFCSR; C4m#19-5th4w-NN6-65)
Asked: Which is greater in ELISA S/N(SA), the first item 1 or the second item 2 ? When you have decided, please share the label of that item.
Given back: 2
(2: 12.5, 1: 7.7)
